target: human Y4 receptor (human, UniProt P50391 1-375); assay: 125I-PP displacement
Sequence (P50391 whole entry): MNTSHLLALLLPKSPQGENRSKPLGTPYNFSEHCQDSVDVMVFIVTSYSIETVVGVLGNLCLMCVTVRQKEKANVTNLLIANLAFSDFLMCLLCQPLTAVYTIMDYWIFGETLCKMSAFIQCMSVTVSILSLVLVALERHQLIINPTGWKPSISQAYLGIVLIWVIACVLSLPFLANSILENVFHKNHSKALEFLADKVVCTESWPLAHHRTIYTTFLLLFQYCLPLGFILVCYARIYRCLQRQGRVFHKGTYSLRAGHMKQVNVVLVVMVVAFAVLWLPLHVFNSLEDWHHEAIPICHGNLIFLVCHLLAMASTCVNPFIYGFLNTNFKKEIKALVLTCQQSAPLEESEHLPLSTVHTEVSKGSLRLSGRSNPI
readout: IC50 (nM)

Sample answers from the record:
PAPLEPSYPGDDATPQQMAHYYAELRRYINKLTRPRY [4057774] ... 0.227
PAPLEPHYPGDDATPQQMARYAAELRRYINKLTRPRY [4057897] ... 0.07
PAPLEPTYPGDNATPEQMAHYYSELRRYINKLTRPRY [4057783] ... 0.154

A: AAPLEPHYPGDDATPQQMAHYYSELRRYINKLTRPRY [4057788]
B: PAPLEPVYPGDNASPEQMARYAAELRRYINKLTRPRY [4057770]
Incoming: Which record shows the lower IC50: the first, A , or the second, B ? // caller expects the label of the chosen entry
Outgoing: B

Cited source: patent US20100279930A1
